Please respond with reported growth for every item in the list.
System: PC-3 prostate
Assay: NCI-60 one-dose screen, 48 h (100 = growth as untreated, 0 = no growth, -100 = all killed)
Conditions: 10 µM unless noted
Method: Growth inhibition of the PC-3 human tumor cell line is measured as a screen for anti-cancer activity. Cells are grown in 96 well plates and exposed to the test compound for 48 hours. Compounds are tested at a single concentration, which is 10^-5 M for most compounds. The reported endpoint is percent growth (GI% or GIPRCNT), where numbers from 0 - 100% represent growth inhibition, and numbers from -100% - 0 represent cell death. For example, a value of 40 represents 60% growth inhibition. […]
This is part of a sample that, as a whole, favours compounds with a hit. Of some 83,000 tested, about 20% had one in any assay.
Note: unit % is implicit; provide only the numeric part.

Query block: Could you tell me which growth is on file for CC1=C[C@H]2c3c(c(O)c(O)c4oc5cc(O)ccc5c(=O)c34)[C@H](c3cc(O)c(O)c4oc5cc(O)ccc5c(=O)c34)[C@H]2C(C)(C)C1 ?
Result block: 29.7

Query block: Could you tell me which growth is on file for CC(C)n1c(/C=C/[C@@H](O)C[C@@H](O)CC(=O)O)c(-c2ccc(F)cc2)c2ccccc21 ?
Result block: 26.5

Query block: Could you tell me which growth is on file for O=S(=O)(Nc1ccc(Br)c(Cl)c1)c1ccc(-c2cnc(C3CC3)o2)cc1 ?
Result block: 23.9

Query block: Could you tell me which growth is on file for NCCNc1nc(Nc2ccc(-c3nc4ccccc4[nH]3)cc2)c2cn[nH]c2n1 ?
Result block: 74

Query block: Could you tell me which growth is on file for CCOc1cc2ncc(C#N)c(Nc3ccc(OCc4cccc(F)c4)c(Cl)c3)c2cc1NC(=O)CC1CCSS1 (stereo not drawn) ?
Result block: -42.7

Query block: Could you tell me which growth is on file for CCCCC[C@H]1C/C=C2/C(=O)C=C[C@@H]2C/C=C\CCCC(=O)O1 ?
Result block: -38.4

Query block: Could you tell me which growth is on file for COc1ccc(/C=N/C2=C(C#N)C(c3ccc(N(C)C)cc3)c3ccc4ccccc4c3O2)cc1 (stereo not drawn) ?
Result block: 52.5

Query block: Could you tell me which growth is on file for CON1C(=O)CC[C@]2(C)[C@H]3CC[C@@H]4C([C@@]5(C)CCC(=O)O5)CC[C@@]4(C)[C@]3(C)CC[C@H]2C1(C)C (stereo partly drawn) ?
Result block: 87.4

###

system: SNB-19 CNS; experiment: NCI-60 one-dose screen, 48 h (100 = growth as untreated, 0 = no growth, -100 = all killed); conditions: 10 µM unless noted
The panel holds about 83,000 compounds, 20% with a hit somewhere; the sample as a whole holds those more often. The source made the active and inactive calls. Rule for the calls: active = growth percent below 10; inactive = the rest.
Please respond with reported growth for every item in the list.

Query block: Could you tell me which growth is on file for CC[C@H]1OC(=O)[C@H](C)[C@@H](O[C@H]2C[C@@](C)(OC)[C@@H](O)[C@H](C)O2)[C@H](C)[C@@H](O[C@@H]2O[C@H](C)C[C@H](N(C)C)[C@H]2O)[C@](C)(O)C[C@H](C)CN(C)[C@H](C)[C@@H](O)[C@]1(C)O ?
Result block: 93.4% (inactive)

Query block: Could you tell me which growth is on file for CC1(C)CC[C@]2(C(=O)Nc3ccccn3)CC[C@]3(C)C(=CC[C@@H]4[C@@]5(C)C/C(=C/c6cccnc6)C(=O)C(C)(C)[C@@H]5CC[C@]43C)[C@H]2C1 ?
Result block: 63.8% (inactive)

Query block: Could you tell me which growth is on file for COc1cc(-c2nn(-c3ccc(C)cc3)cc2C(=O)O)ccc1O ?
Result block: 97.7% (inactive)

###

Please respond with reported growth for every item in the list.
test system: HCT-116 colon; assay: NCI-60 one-dose screen, 48 h (100 = growth as untreated, 0 = no growth, -100 = all killed); conditions: 10 µM unless noted
This is part of a sample that, as a whole, favours compounds with a hit. Of some 83,000 tested, about 20% had one in any assay.
Note: unit % is implicit; provide only the numeric part.

Query block: Could you tell me which growth is on file for Nc1ccc(-c2cc3c(NCc4ccccc4)ncnc3s2)cc1 ?
Result block: 95.6

Query block: Could you tell me which growth is on file for COc1cc2c(cc1O)CC[C@@H]1[C@@H]2CC[C@]2(C)[C@@H](OCCN(C)C)CC[C@@H]12 ?
Result block: 7.27

Query block: Could you tell me which growth is on file for CC(C)n1c(/C=C/[C@@H](O)C[C@@H](O)CC(=O)O)c(-c2ccc(F)cc2)c2ccccc21 ?
Result block: 22.1

Query block: Could you tell me which growth is on file for CCCN1CCN(c2ccc3nc(-c4ccc5nc(-c6ccc(OCC)cc6)[nH]c5c4)[nH]c3c2)CC1 ?
Result block: -89.8

Query block: Could you tell me which growth is on file for CC/C=C\C/C=C\C[C@H]1C/C=C2/C(=O)C=C[C@@H]2C/C=C\CCC(=O)O1 ?
Result block: -48.7

###

system: UO-31 renal; assay: NCI-60 one-dose screen, 48 h (100 = growth as untreated, 0 = no growth, -100 = all killed); conditions: 10 µM unless noted
About 83,000 compounds went through this panel and 20% of them were active in at least one assay; those are over-represented in the sample as a whole.
property: growth (%)
Note: unit % is implicit; provide only the numeric part.

Query block: Could you tell me which growth is on file for FC(F)(F)c1[nH]ncc1-c1nc2ccc3n[nH]c(C#Cc4cccnc4)c3c2c2c1CCCC2 ?
Result block: 19.8

Query block: Could you tell me which growth is on file for NC(CSC(c1ccccc1)(c1ccccc1)c1ccc(Cl)cc1)C(=O)O (stereo not given) ?
Result block: 65

Query block: Could you tell me which growth is on file for O=S(=O)(Nc1ccc(I)cc1F)c1ccc(-c2cnc(C3CC3)o2)cc1 ?
Result block: 70.1

Query block: Could you tell me which growth is on file for Cc1ncc(C(=O)Nc2ccc(CN3CCN(C)CC3)c(C(F)(F)F)c2)cc1C#Cc1cnc2cccnn12 ?
Result block: 1.45

Query block: Could you tell me which growth is on file for C=C1C(=O)O[C@H]2[C@H]1CC/C(COC(=O)NCc1ccc(OC)c(OC)c1)=C\CC[C@@]1(C)O[C@@H]21 ?
Result block: 56.7

###

system: HS 578T breast; experiment: NCI-60 one-dose screen, 48 h (100 = growth as untreated, 0 = no growth, -100 = all killed); conditions: 10 µM unless noted
Compounds without any hit were thinned out: in the full panel of roughly 83,000, 20% have a hit. The source made the active and inactive calls. How the source made its calls: active means growth percent below 10; inactive means the rest.
property: growth

Query block: Could you tell me which growth is on file for CCOc1nc(-c2ccccc2)cc2c(O)c(C(=O)N/N=C/c3ccc(O)cc3O)[nH]c(=O)c12 ?
Result block: 82.9% (inactive)

Query block: Could you tell me which growth is on file for O=C(CCCCC(=O)N/N=C\c1ccccc1O)N/N=C\c1ccccc1O ?
Result block: 71% (inactive)

Query block: Could you tell me which growth is on file for O=C1c2cc3c(cc2-c2c1c1ccc(F)cc1c(=O)n2CCCNCCO)OCO3 ?
Result block: 3.15% (active)

Query block: Could you tell me which growth is on file for COc1cc2nc(N3CCCC3)nc(NCCc3ccccc3)c2cc1OC ?
Result block: 98.4% (inactive)

Query block: Could you tell me which growth is on file for CC1=NN(c2nc(-c3ccc(Cl)cc3)c(C#N)c(N3CCOCC3)n2)C(=O)C1 ?
Result block: 54.6% (inactive)

Query block: Could you tell me which growth is on file for CN(C)c1ccc(N=Nc2ccc(Br)cn2)c(O)c1 ?
Result block: 64% (inactive)

Query block: Could you tell me which growth is on file for O=C1c2cc3c(cc2-c2c1c1ccc(F)cc1c(=O)n2C[C@H](O)[C@@H](O)[C@H](O)CO)OCO3 ?
Result block: 0.229% (active)

Query block: Could you tell me which growth is on file for NS(=O)(=O)c1ccc(CN=C2NC(=O)S/C2=C\c2ccc(Br)cc2)cc1 ?
Result block: 97.6% (inactive)

Query block: Could you tell me which growth is on file for Cc1cc(C)nc(SC2=C(Nc3cc(Cl)ccc3O)C(=O)N(Cc3ccccc3)C2=O)n1 ?
Result block: 82.7% [30 µM] (inactive)

Query block: Could you tell me which growth is on file for CC(C)(CCCN=C(N)Nc1ccc(Cl)cc1)c1ccc(F)cc1 ?
Result block: 83.2% (inactive)

Query block: Could you tell me which growth is on file for COc1cc2nc(N3CCCC3)nc(NCc3ccccc3)c2cc1OC ?
Result block: 73.7% (inactive)

Query block: Could you tell me which growth is on file for NC(=O)c1cc(Cl)ccc1NC(=O)/C=C/c1ccccc1 ?
Result block: 7.85% (active)

Query block: Could you tell me which growth is on file for Cn1c(=O)c2c(nc3n(-c4ccc(Cl)cc4Cl)c(Sc4nc(-c5ccccc5)c(C#N)c(=O)[nH]4)cn23)n(C)c1=O ?
Result block: 11.5% (inactive)

Query block: Could you tell me which growth is on file for CC(=O)c1cc(C(=O)c2ccc3c(c2)Sc2ccccc2N3)n2ccccc12 ?
Result block: 24.9% (inactive)

Query block: Could you tell me which growth is on file for C=C1c2nc3ccccc3n2C=C(c2ccc(OC)cc2)N1Cc1ccccc1 ?
Result block: 116% (inactive)

Query block: Could you tell me which growth is on file for CC(=O)O[C@H]1CC[C@]2(C)[C@H]3CC=C4[C@@H]5CC(C)(C)CC[C@]5(C(=O)NCCNCCNCCN)CC[C@@]4(C)[C@]3(C)CC[C@H]2C1(C)C ?
Result block: 92.2% (inactive)

Query block: Could you tell me which growth is on file for Nc1n[nH]c2cc(F)c([C@@H]3Nc4ccc5[nH]ncc5c4[C@H]4C5CCC(C5)[C@@H]34)cc12 (some centres undefined) ?
Result block: -4.82% (active)

Query block: Could you tell me which growth is on file for N#Cc1c(-c2ccc(Cl)cc2)nc(NN=Cc2ccco2)nc1N1CCOCC1 ?
Result block: 68.2% (inactive)

Query block: Could you tell me which growth is on file for O=C1Nc2c(ccc(Cl)c2Cl)/C1=C\c1cc(C(F)(F)F)cc(C(F)(F)F)c1 ?
Result block: -37.6% (active)
